target: Luciferin 4-monooxygenase (Photinus pyralis) (UniProt P08659); assay: inhibition of purified Photinus pyralis luciferase – biochemical, luminescence, purified enzyme, 2006 set, primary screen (AID 1141); conditions: purified firefly luciferase, SteadyGlo luminescence, 30 min; higher = more signal, called active from +8 up or from −8 down;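 also: cell-free assay with purified firefly luciferase at 100 ng per well in PBS; test concentration not given here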
Sequence (P08659 whole entry, looked up): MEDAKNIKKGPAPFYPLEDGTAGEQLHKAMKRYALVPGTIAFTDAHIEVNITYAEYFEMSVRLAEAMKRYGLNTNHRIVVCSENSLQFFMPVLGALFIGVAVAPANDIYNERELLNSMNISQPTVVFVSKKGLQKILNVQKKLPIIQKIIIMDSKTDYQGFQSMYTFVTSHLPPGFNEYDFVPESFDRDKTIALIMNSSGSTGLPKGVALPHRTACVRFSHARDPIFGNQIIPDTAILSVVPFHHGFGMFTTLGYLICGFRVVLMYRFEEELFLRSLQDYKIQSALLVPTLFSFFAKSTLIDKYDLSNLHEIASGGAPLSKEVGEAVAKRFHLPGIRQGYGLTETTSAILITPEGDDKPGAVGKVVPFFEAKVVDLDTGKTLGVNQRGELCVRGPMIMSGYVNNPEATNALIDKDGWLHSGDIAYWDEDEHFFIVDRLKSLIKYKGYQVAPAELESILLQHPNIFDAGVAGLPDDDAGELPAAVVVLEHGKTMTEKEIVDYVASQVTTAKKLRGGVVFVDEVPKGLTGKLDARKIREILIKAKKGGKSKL
Rule: z-score under -1 gives no, otherwise yes.

>  <molecule>
COc1cc2c(cc1O)C(c1ccc(CN3CCCC3)cc1)N(Cc1sc3ccccc3c1Cl)CC2 (stereo not given)

>  <target-entity>
Luciferin 4-monooxygenase (Photinus pyralis) (UniProt P08659)

>  <label>
yes

$$$$
>  <molecule>
[N-]=[N+]=NCc1ccccc1C[C@]1(C(N)=O)N=C(c2ccc(OCCCO)cc2)O[C@H]1c1ccccc1N=[N+]=[N-]

>  <target-entity>
Luciferin 4-monooxygenase (Photinus pyralis) (UniProt P08659)

>  <label>
no

$$$$
>  <molecule>
C=CCN1C(=O)[C@]2(COC(c3ccc(OCCCO)cc3)=N2)Cc2ccccc21

>  <target-entity>
Luciferin 4-monooxygenase (Photinus pyralis) (UniProt P08659)

>  <label>
no

$$$$
>  <molecule>
OCCCc1cc[n+](Cc2cccc(OC(F)(F)F)c2)cc1

>  <target-entity>
Luciferin 4-monooxygenase (Photinus pyralis) (UniProt P08659)

>  <label>
yes

$$$$
>  <molecule>
O=C1O[C@@H](c2ccccc2)[C@@H](c2ccccc2)N2[C@@H](c3ccc(O)cc3)[C@]3(C(=O)Nc4ccccc43)[C@@H](C(=O)NC[C@H](O)c3ccccc3)[C@H]12

>  <target-entity>
Luciferin 4-monooxygenase (Photinus pyralis) (UniProt P08659)

>  <label>
yes

$$$$

Is it the case that C=C(C(=O)CC[C@@H](OC(=O)c1cccnc1)c1ccc(CO)o1)C(C)C has z-score reaching or exceeding -1?
no

Is it the case that CN1C(=O)C2C=CC(C(O)C=Cc3ccc([N+](=O)[O-])cc3)N(N3CCCCC3)C2C1=O (stereo not given) has z-score reaching or exceeding -1?
no

Is it the case that COCCOC(=O)N1C(=O)[C@@]2(c3cc(C#CCC(C(=O)OC)C(=O)OC)ccc31)[C@H](c1ccc(OCCO)cc1)N1[C@H](c3ccccc3)[C@H](c3ccccc3)OC(=O)[C@H]1[C@@H]2C(=O)NC[C@H](O)c1ccccc1 has z-score reaching or exceeding -1?
yes

Is it the case that COc1ccc(C(=O)Nc2cccc(CN3C(=O)[C@@]4(O[C@@H](CC(=O)N5Cc6ccccc6C[C@H]5CO)[C@H]([Si](C)(C)c5ccc(OC)cc5)[C@H]4C)c4ccccc43)c2)cc1 has z-score reaching or exceeding -1?
no

Is it the case that CCN(CC)c1ccc(N2CC=CC34O[C@@H]5C=CCOC(=O)[C@@H]5[C@H]3C(=O)N(CCCCCO)[C@@H]4C2=O)cc1 (stereo not given in full) has z-score reaching or exceeding -1?
yes

Is it the case that CN(C)CCCC[C@@H]1NC(=O)[C@H]2C[C@@H](C(=O)NCCCCCNC(=O)CS)[C@@H](c3ccc(O)cc3)N2C1=O has z-score reaching or exceeding -1?
no

Is it the case that C=C[C@@H](C)[C@@H](OC(=O)Nc1ccc(OC)cc1)c1ccc(O)c2ccccc12 has z-score reaching or exceeding -1?
no

Is it the case that O=C1OCC=C[C@H]2OC34C=CCN(CCN5CCOCC5)C(=O)[C@H]3N(CCCCCCO)C(=O)[C@@H]4[C@@H]12 (stereo not given in full) has z-score reaching or exceeding -1?
yes

Is it the case that C/C=C/[C@H](CCn1cc([C@H](O)c2ccccc2)nn1)[Si](C)(C)c1ccc(OC)cc1 has z-score reaching or exceeding -1?
yes
